- TESTED ON: PsPrnB
- Construct: gene prnB; N-terminal His6-tag (TEV-cleavable)
- TEST SUMMARY: UV-visible absorption titration of the ferric enzyme; resonance Raman
- Format: binding, Pseudomonas sp. ADAK18
ASSAY ENDPOINT: Kd (nM)
Give the number; nM is assumed, so skip it.

I am curious: what Kd value has been reported for N[C@@H](Cc1c[nH]c2c(Cl)cccc12)C(=O)O ?
1900
